Exercise: for every item that follows, state its recorded selectivity ratio.
- test protocol: Therapeutic index, ratio of IC50 for human PBMC to IC50 for methicillin-resistant Staphylococcus aureus CIMRSA1
- experimental setup: read-out: Ratio IC50
Numbers only.

# smiles representation, reported measurement
rows = [
    ("CCCCCCCCCCCCCC#CC(=O)Oc1ccc(/C=C/C(=O)/C=C/c2ccc(OC(=O)C#CCCCCCCCCCCCCC)c(OC)c2)cc1OC", 8.1),
]

With those in mind, consider the next compound.
Lookup: State, in one line, measured selectivity ratio of COc1cc(/C=C/C(=O)/C=C/c2ccc(O)c(OC)c2)ccc1O
Found: 0.3

###

- test protocol: Therapeutic index, ratio of IC50 for human PBMC to IC50 for methicillin-resistant Staphylococcus aureus CIMRSA5
- experimental setup: read-out: Ratio IC50
measurement label: selectivity ratio

# smiles representation, reported measurement
measured = [
    ("CCCCCCCCCCCCCC#CC(=O)Oc1ccc(/C=C/C(=O)/C=C/c2ccc(OC(=O)C#CCCCCCCCCCCCCC)c(OC)c2)cc1OC", 9.7),
]

We now examine a further molecule.
Lookup: Please give measured selectivity ratio of the following entry: COc1cc(/C=C/C(=O)/C=C/c2ccc(O)c(OC)c2)ccc1O
Found: 0.2
